molecular target: FRMPD2_2, Q68DX3; experiment: holdup assay; design: key: below the threshold = too weak to quantify, mostly under pKd 3.1 to 4; conditions: plain residues with an end cap or a label only (N-terminal biotin on a linker: ado-ado)
Sequence (Q68DX3 944-1038): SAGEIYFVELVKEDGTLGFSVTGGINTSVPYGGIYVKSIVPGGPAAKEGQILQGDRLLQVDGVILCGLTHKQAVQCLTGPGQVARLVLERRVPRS
Each record here notes measured pKd.
Just the number, please.

[[record]]
binder = "PRAEAEDSFL [PDGFRB, P09619]"
reported_property = "pKd"
observed_measurement = 3.52

[[record]]
binder = "QSARLWETSI [ADAM22, Q9P0K1]"
reported_property = "pKd"
observed_measurement = 3.97

[[record]]
binder = "LPHGHSTTRV [NLGN4X, Q8N0W4]"
reported_property = "pKd"
observed_measurement = 3.63


The record that follows has no pKd shown yet.
Reported pKd ( RRRESYSTTV [EVI5, O60447] ) = 3.74
